Where these numbers come from: PubChem BioAssay

System Under Test: Voltage-gated potassium channel subunit beta-2 (Rattus norvegicus)
Experiment Description: KvBeta positive modulators, primary screen, biochemical, NADPH fluorescence (AID 623);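 further: fluorescence intensity change per second fitted from 20 to 320 s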
Experimental Context: Recombinant KvBeta, NADPH fluorescence decrease slope, 10 min; at 10 µM; stronger effect = lower value
Activity calls are given as the source filed them.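 How the source made its calls: active means NADPH fluorescence slope more negative than the mean of all samples by about 3 SD, 99.7% confidence; inactive means the rest.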
Quick list: NADPH fluorescence slope per entry.
Readout Type: NADPH fluorescence slope

[[record]]
molecule = "CC1(C)CC(=O)C2=C(C1)OC(=O)C2(NC(=O)c1cccs1)C(F)(F)F (centres undefined)"
reported = "-4.5e-05 (inactive)"

[[record]]
molecule = "Cc1cccc(OCCNC(=O)c2ncn[nH]2)c1"
reported = "-1.6e-05 (inactive)"

[[record]]
molecule = "CCCc1cc(NCCCCO)n2c(nc3ccccc32)c1C#N"
reported = "-2.1e-05 (inactive)"

[[record]]
molecule = "CC1CCN(S(=O)(=O)c2cccc(C(=O)Nc3ccccn3)c2)CC1"
reported = "-4.1e-05 (inactive)"

[[record]]
molecule = "CCCCOc1cc(=O)[nH]c(=O)[nH]1"
reported = "-5.2e-06 (inactive)"

[[record]]
molecule = "COc1cccc(-c2nc3n(n2)C(c2ccccc2Cl)C(C(N)=O)=C(C)N3)c1 (centres undefined)"
reported = "1.7e-05 (inactive)"

[[record]]
molecule = "CCN(CC)CCCN1C(=O)C(=O)/C(=C(/O)c2ccc3c(c2)CC(C)O3)C1c1ccncc1 (centres undefined)"
reported = "-4.1e-05 (inactive)"

[[record]]
molecule = "Cc1ccc(CCNC(=O)C2CCC(=O)N2C2CCCC2)cc1 (centres undefined)"
reported = "-4.7e-05 (inactive)"

[[record]]
molecule = "O=C(CSc1nnc(CNC(=O)c2cccs2)o1)NCCc1ccccc1"
reported = "-4.4e-05 (inactive)"

[[record]]
molecule = "c1ccc2c(c1)[nH]c1c(N3CCSCC3)ncnc12"
reported = "-3.7e-06 (inactive)"

[[record]]
molecule = "CCCC(=O)Nc1cnc(NC(=O)c2cccc(F)c2)cc1C"
reported = "4e-05 (inactive)"

[[record]]
molecule = "CCOc1ccc(C2CC(=O)NC3=C2C(=O)CCC3)cc1Cl (centres undefined)"
reported = "-3.2e-05 (inactive)"

[[record]]
molecule = "CCN(CC)Cc1cc(C(C)=O)ccc1OCC(C)C"
reported = "-4.7e-05 (inactive)"

[[record]]
molecule = "O=C(CN1C(=O)CCS(=O)(=O)c2ccccc21)Nc1cccc(F)c1"
reported = "-4.5e-05 (inactive)"


###

Experiment Description: inhibitors of mutant huntingtin aggregation, primary screen, imaging, exon1htt(103Q)mCFP cells, high-content imaging (AID 483);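 further: compound exposure lasted 3 days before fixation; percent of the per-plate median nuclei count of sample wells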
Experimental Context: exon1htt(103Q)mCFP cell line, aggregate imaging, at 2 µM; measured here: cell count, toxicity
Readout Type: nuclei count (%)

[[record]]
compound = "COC(=O)c1ccccc1NC(=O)Cn1ccnc1"
reported = 78.1

[[record]]
compound = "CCc1cccc2c(=O)c(C(=O)N3CCCCCC3)c[nH]c12"
reported = 87.7

[[record]]
compound = "O=C(NCc1ccc(F)cc1)C1CCN(C(=O)NCc2ccccc2)CC1"
reported = 110

[[record]]
compound = "CCCNS(=O)(=O)c1ccc(OCC(=O)NCc2ccc3c(c2)OCO3)cc1"
reported = 108

[[record]]
compound = "Cc1nc2sc(C(c3cccs3)N3CC(C)CC(C)C3)c(O)n2n1 (stereo unspecified)"
reported = 118

[[record]]
compound = "CCOC(=O)CSc1nnc(CCc2nc3ccccc3[nH]2)n1C"
reported = 73


###

Experiment Description: inhibitors of TNFa-induced NFkB p65 translocation, primary screen, imaging, HUVEC, MLSMR starter and 10KST1 sets (AID 438);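 further: compound added about 3h40 before a 20 min TNFalpha stimulation; signal is the nuclear over cytoplasmic p65 intensity ratio per well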
Experimental Context: HUVEC TNFa-induced p65 nuclear translocation; at 2 µM, stronger effect = higher value, 0% TNFa-plus-vehicle, 100% no-TNFa wells
Active and inactive are the calls of the source.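 Rule for the calls: active = inhibition above 20% together with a positive visual image hit; inconclusive = visual image hit but inhibition not above 20%; inactive = no visual image hit.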 Where a SMILES comes first, the peptide text is derived from it. The star is where a group is joined. Boc = CC(C)(C)OC(=O)*
// reported inhibition per item
Readout Type: inhibition

[[record]]
molecule = "Nc1ncnc2oc(-c3ccco3)c(-c3ccco3)c12"
readout_type = "inhibition"
reported = "-3.3% (inactive)"

[[record]]
molecule = "C=CCn1c(C)cc(C(=O)CSc2nc3ccccc3o2)c1C"
readout_type = "inhibition"
reported = "-8.9% (inactive)"

[[record]]
molecule = "CCOc1ccc(C2C(C#N)=C(N)Oc3cc(C)n(CCN4CCOCC4)c(=O)c32)cc1OCC (configuration not stated)"
readout_type = "inhibition"
reported = "-10.8% (inactive)"

[[record]]
molecule = "CCOC(=O)CNC(=O)CSc1nc(N)cc(N)n1"
readout_type = "inhibition"
reported = "5.1% (inactive)"

[[record]]
molecule = "COc1ccc(C2CC(c3ccccc3)Nc3nc(N)nn32)cc1 (configuration not stated)"
readout_type = "inhibition"
reported = "4.8% (inactive)"

[[record]]
molecule = "CCOc1ccccc1NC(=O)CCSc1nc2n[nH]c(C)c2c(=N)n1-c1ccccc1Cl"
readout_type = "inhibition"
reported = "-10.2% (inactive)"

[[record]]
molecule = "CSc1nc(C)c(C(=O)Nc2ccccc2)c(C)c1C#N"
readout_type = "inhibition"
reported = "-11.2% (inactive)"

[[record]]
molecule = "CC(C)(C)OC(=O)N1CCCC1C(=O)NC(Cc1ccccc1)C(=O)O (stereo not drawn) (Boc-Pro-Phe-OH; configuration not given here)"
readout_type = "inhibition"
reported = "1% (inactive)"

[[record]]
molecule = "c1nc(NC2CCCCC2)c2[nH]cnc2n1"
readout_type = "inhibition"
reported = "-1.9% (inactive)"

[[record]]
molecule = "O=C(c1cnccn1)N(c1ccccc1)C1(C(=O)NC2CCCC2)CCCCC1"
readout_type = "inhibition"
reported = "-15.7% (inactive)"

[[record]]
molecule = "C=C(C)Cn1c(N2CC(C)CC(C)C2)nc2c1c(=O)[nH]c(=O)n2C (configuration not stated)"
readout_type = "inhibition"
reported = "-8% (inactive)"

[[record]]
molecule = "O=S(=O)(N[C@@H]1C[C@H]2CC[C@@H]1C2)c1cccs1"
readout_type = "inhibition"
reported = "-8.9% (inactive)"

[[record]]
molecule = "CCOC(=O)c1cccc(NC(=O)CNS(=O)(=O)c2cccs2)c1"
readout_type = "inhibition"
reported = "6.8% (inactive)"

[[record]]
molecule = "Cc1cc(N2C(=O)C(=O)/C(=C(/O)c3ccc(F)cc3)C2c2cccc(Br)c2)no1 (configuration not stated)"
readout_type = "inhibition"
reported = "2.6% (inactive)"

[[record]]
molecule = "COc1cccc(NC(=O)C2CC(=O)n3cnnc3S2)c1 (configuration not stated)"
readout_type = "inhibition"
reported = "-3.8% (inactive)"

[[record]]
molecule = "COc1ccc(/C(O)=C2/C(=O)C(=O)N(CCCN(C)C)C2c2ccc(C)o2)cc1Cl (configuration not stated)"
readout_type = "inhibition"
reported = "-8.3% (inactive)"

[[record]]
molecule = "O=C(CC1Oc2ccc(Cl)cc2NC1=O)NC1CCCCCC1 (configuration not stated)"
readout_type = "inhibition"
reported = "-4.3% (inactive)"


###

Experiment Description: inhibitors of mutant huntingtin aggregation, primary screen, imaging, exon1htt(103Q)mCFP cells, high-content imaging (AID 483);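 further: compound exposure lasted 3 days before fixation; percent of the per-plate median nuclei count of sample wells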
Experimental Context: exon1htt(103Q)mCFP cell line, aggregate imaging, at 2 µM; measured here: cell count, toxicity
Each entry below carries its reported nuclei count.
Readout Type: nuclei count (%)

[[record]]
molecule = "COC(=O)c1ccc2c(c1)nc(C)n2CCO"
reported = 139

[[record]]
molecule = "CCCN(CCC)CCNC(=O)c1cc2c(=O)n(C)c3ccccc3c2n1C"
reported = 109

[[record]]
molecule = "CCOC(=O)c1c(C)[nH]c(C(=O)Cn2c(=O)c3c(ncn3CC)n(Cc3ccccc3)c2=O)c1C"
reported = 88.5

[[record]]
molecule = "COc1ccccc1CNC(=O)Nc1cccs1"
reported = 118

[[record]]
molecule = "N#CCOc1nc(N2CCOCC2)nc(N2CCOCC2)n1"
reported = 76.6

[[record]]
molecule = "COc1ccc(OC)c(NC(=O)C2C3CC4OC(=O)C2C4C3)c1 (centres undefined)"
reported = 117

[[record]]
molecule = "COc1ccccc1CNC(=O)N[C@@H](Cc1ccccc1)C(=O)O"
reported = 107

[[record]]
molecule = "CCc1ccc2[nH]c(=O)c(C(c3nnnn3CC3CCCO3)N3CCCc4ccccc43)cc2c1 (centres undefined)"
reported = 87.5

[[record]]
molecule = "Cc1nnc(SCC(=O)Nc2nccs2)s1"
reported = 116


###

Experiment Description: inhibitors of TNFa-induced NFkB p65 translocation, primary screen, imaging, HUVEC, MLSMR starter and 10KST1 sets (AID 438);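 further: compound added about 3h40 before a 20 min TNFalpha stimulation; signal is the nuclear over cytoplasmic p65 intensity ratio per well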
Experimental Context: HUVEC TNFa-induced p65 nuclear translocation; at 2 µM, 0% TNFa-plus-vehicle, 100% no-TNFa wells
The source made the active and inactive calls.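 The calls were made as follows: active = inhibition above 20% together with a positive visual image hit; inconclusive = visual image hit but inhibition not above 20%; inactive = no visual image hit.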
Classes used: active, inactive

[[record]]
compound = "CCN1C(=O)c2ccccc2S(=O)(=O)c2ccc(C(=O)NCc3cccnc3)cc21"
cat = "inactive"

[[record]]
compound = "OC1(c2cccc(C(F)(F)F)c2)CCN(c2ccc(-c3ccccc3)nn2)CC1"
cat = "inactive"

[[record]]
compound = "COC(=O)c1ccccc1NC(=O)C1CC(=O)N(c2ccc(F)cc2)C1 (configuration not stated)"
cat = "inactive"

[[record]]
compound = "COc1cccc(NC(=O)C2CCCN(S(=O)(=O)c3cccc4cccnc34)C2)c1 (configuration not stated)"
cat = "inactive"

[[record]]
compound = "CCc1ccc(N(CC(=O)NC2CCCC2)S(=O)(=O)c2c(C)noc2C)cc1"
cat = "inactive"

[[record]]
compound = "CCSc1cc(C2C(C(=O)OC)=C(C)NC3=C2C(=O)CCC3)c(C)o1 (configuration not stated)"
cat = "inactive"

[[record]]
compound = "CCOC(=O)CSc1nc(-c2ccc3c(c2)OCO3)ccc1C#N"
cat = "inactive"

[[record]]
compound = "O=C(CN1CCN(c2ncccn2)CC1)Nc1ccccc1-n1cccc1"
cat = "inactive"

[[record]]
compound = "Cn1c(=O)c2c(nc(NCc3ccc4c(c3)OCO4)n2Cc2ccccc2)n(C)c1=O"
cat = "inactive"

[[record]]
compound = "Cn1c(=O)c2c(nc(CN3CCOCC3)n2CC(O)CO)n(C)c1=O (configuration not stated)"
cat = "active"

[[record]]
compound = "COc1ccc2nc3oc(C(=O)NC4CCN(Cc5ccccc5)CC4)cc3cc2c1"
cat = "inactive"

[[record]]
compound = "CCOc1ccc(NC(=O)CN(c2cc(C)cc(C)c2)S(=O)(=O)c2c(C)noc2C)cc1"
cat = "inactive"

[[record]]
compound = "CCCCn1c(CNC(=O)CCC)nc2ccccc21"
cat = "inactive"

[[record]]
compound = "COc1cccc(C(=O)N2CCN(Cc3ccccn3)CC2)c1OC"
cat = "inactive"

[[record]]
compound = "CCSc1nncn1/N=C/c1ccc(OC)c(OC)c1"
cat = "inactive"

[[record]]
compound = "CCC(NC(=O)Nc1nccs1)(C(F)(F)F)C(F)(F)F"
cat = "inactive"

[[record]]
compound = "Cc1ccc(-c2noc(CCC(=O)NCC3CCN(Cc4cccc(C)c4)CC3)n2)cc1"
cat = "inactive"

[[record]]
compound = "C=CCOc1ccc(/C(O)=C2\\C(=O)C(=O)N(CCN(C)C)C2c2cccs2)cc1 (configuration not stated)"
cat = "inactive"

[[record]]
compound = "Nc1nc2n(n1)C(c1cccs1)CC(c1ccc(Br)cc1)N2 (configuration not stated)"
cat = "inactive"

[[record]]
compound = "O=C(C/C(=N/O)c1ccccc1O)C(F)F"
cat = "inactive"

[[record]]
compound = "Cn1c(=O)[nH]c(=O)c2c1nc(N1CCNCC1)n2CCOc1ccccc1"
cat = "inactive"

[[record]]
compound = "CC(=O)N1CCN(C(=O)COc2ccc(Br)cc2)CC1"
cat = "inactive"

[[record]]
compound = "CCOC(=O)c1c(N)sc(C(=O)N2CCOCC2)c1C"
cat = "inactive"

[[record]]
compound = "Nc1nc(-c2ccc(Br)s2)c(Br)s1"
cat = "inactive"

[[record]]
compound = "CCc1cc(=O)oc2cc(C)c(CN3CCCC(C)C3)c(O)c12 (configuration not stated)"
cat = "inactive"

[[record]]
compound = "CN1CCc2nc(SCCOc3ccccc3)c(C#N)cc2C1"
cat = "inactive"

[[record]]
compound = "CN1C(=O)NC(c2ccccc2)C2=C1CN(Cc1ccccc1)C2=O (configuration not stated)"
cat = "inactive"

[[record]]
compound = "CC(C)CN(CC(C)C)C(=O)CS(=O)(=O)Cc1ccccc1"
cat = "inactive"

[[record]]
compound = "Cc1c(Cl)cccc1N1C(=O)C2ON(c3ccccc3)C(c3cccnc3)C2C1=O (configuration not stated)"
cat = "inactive"

[[record]]
compound = "CC(C)Cn1c(CN2CCN(c3ccccc3F)CC2)nc2c1c(=O)[nH]c(=O)n2C"
cat = "inactive"

[[record]]
compound = "COc1cc(C2C(C(C)=O)=C(O)C(=O)N2c2ccc(Br)cn2)ccc1O (configuration not stated)"
cat = "inactive"

[[record]]
compound = "CC(=O)/C(C#N)=C1\\NC(=O)C(Cc2ccccc2Cl)S1 (configuration not stated)"
cat = "inactive"

[[record]]
compound = "COC(=O)CC1=C(C(=O)OC)C(c2cccc(OCC(N)=O)c2)C(C#N)=C(N)O1 (configuration not stated)"
cat = "inactive"

[[record]]
compound = "C/C=C/Cn1c(Br)nc2c1c(=O)[nH]c(=O)n2C"
cat = "inactive"

[[record]]
compound = "CCn1c(SCC(=O)Nc2ccc3c(c2)OCO3)nnc1-c1ccccc1O"
cat = "inactive"

[[record]]
compound = "Cc1ccc(Cn2c(SCCN3CCCCC3)nc3c2c(=O)[nH]c(=O)n3C)cc1"
cat = "inactive"

[[record]]
compound = "CC12CN3CC(C)(CN(C1)C3c1cc(Br)ccc1O)C2=O (configuration not stated)"
cat = "inactive"

[[record]]
compound = "COc1cc2c(cc1OC)CN(CC(=O)Nc1cccc(C)c1)CC2"
cat = "inactive"

[[record]]
compound = "COc1ccc(C2C=C(c3ccc(C)cc3)Nc3ncnn32)cc1 (configuration not stated)"
cat = "inactive"

[[record]]
compound = "CC1Cc2nc(SCC(=O)Nc3nccs3)n(C)c(=O)c2S1 (configuration not stated)"
cat = "inactive"

[[record]]
compound = "CCNC(=O)c1cc2c(=O)n3cccc(C)c3nc2n(CCc2ccccc2)c1=N"
cat = "inactive"

[[record]]
compound = "O=C1CCCC2=C1C(c1cccc(Br)c1)n1nc(-c3ccco3)nc1N2 (configuration not stated)"
cat = "inactive"

